tested on: SK-MEL-28 melanoma; assay: NCI-60 one-dose screen, 48 h; settings: 10 µM unless noted
Compounds without any hit were thinned out: in the full panel of roughly 83,000, 20% have a hit. Activity calls are given as the source filed them. How the source made its calls: active means growth percent below 10; inactive means the rest.
Give one outcome, nothing more. List: active, inactive

>  <compound>
Cc1ccc(C(=O)NN)cc1

>  <classLabel>
inactive

$$$$
>  <compound>
C/C(CCC(=O)O)=N/Nc1ccc([N+](=O)[O-])cc1

>  <classLabel>
inactive

$$$$
>  <compound>
CC(=O)N1CCN(CCNC(=O)n2cc(-c3ccncc3)c(-c3cc(O)cc(Cl)c3)n2)CC1

>  <classLabel>
inactive

$$$$
>  <compound>
N=C(N)N=Nc1ccc(NN=C(N)N)c2ccccc12

>  <classLabel>
inactive

$$$$
>  <compound>
O=C(Nc1ccc(-n2cc(-c3ccncc3)c(-c3ccc(Cl)c(O)c3)n2)cc1)c1ccc(Cl)c(C(F)(F)F)c1

>  <classLabel>
active

$$$$
>  <compound>
CCOC(=O)c1c(C)oc2ncnc(Nc3ccc(NC(=O)Nc4ccc(CC)cc4)cc3)c12

>  <classLabel>
inactive

$$$$
>  <compound>
COc1ccc(C2=NN(C(=O)c3cc(-c4ccc(C)cc4)nc4ccccc34)C(c3cc(-c4ccccc4)nn3-c3ccccc3)C2)cc1 (stereo not given)

>  <classLabel>
inactive

$$$$
>  <compound>
O=C1OC(c2ccc(-c3ccccc3)cc2)=C/C1=C/c1c2ccccc2cc2ccccc12

>  <classLabel>
inactive

$$$$

Dear all, I need the recorded test outcome for `CCOc1ccc(N(C)c2ccc(/C=C/C3=[N+](C)c4ccccc4C3(C)C)cc2)cc1` , thank you.
inactive

Dear all, I need the recorded test outcome for `Cc1nnc(-c2cc3c(ccc4ccccc43)oc2=O)c2cn(-c3ccc(Cl)cc3)nc12` , thank you.
inactive

Dear all, I need the recorded test outcome for CCCCN(CCCC)CC(O)CN(CC)CC (stereo not given) , thank you.
inactive

Dear all, I need the recorded test outcome for `O=C(Nn1cnc2ccccc21)N1CCCC1` , thank you.
inactive

Dear all, I need the recorded test outcome for `COc1cc(N2C(=O)C=CC2=O)ccc1N1C(=O)C=CC1=O` , thank you.
inactive

Dear all, I need the recorded test outcome for COC(=O)C1CC(=O)N(C(=O)Nc2ccc(Cl)cc2Cl)C1 (stereo not given) , thank you.
inactive

Dear all, I need the recorded test outcome for `CC[C@H](Nc1ncnc2nc[nH]c12)c1nc2cccc(NCc3ccc(C(=O)NO)o3)c2c(=O)n1-c1ccccc1` , thank you.
inactive

====

system: NCI/ADR-RES ovarian; assay: NCI-60 one-dose screen, 48 h; details: 10 µM unless noted
About 83,000 compounds went through this panel and 20% of them were active in at least one assay; those are over-represented in the sample as a whole. The source made the active and inactive calls. How the source made its calls: active means growth percent below 10; inactive means the rest.
Give one outcome, nothing more. List: y (active), n (inactive)

Examples from the recorded data:
>  <molecule>
COC(=O)[C@H](Cc1cn(C)cn1)NC(=O)[C@H](CC(=O)OCc1ccccc1)NC(=O)Nc1cc(C(F)(F)F)cc(C(F)(F)F)c1

>  <classLabel>
y

$$$$
>  <molecule>
COc1cc(N2C(=O)C=CC2=O)ccc1N1C(=O)C=CC1=O

>  <classLabel>
n

$$$$
>  <molecule>
COc1cc(-c2nc3c(c(C)nc4c3nnn4-c3ccccc3)c(=O)o2)cc(OC)c1OC

>  <classLabel>
n

$$$$
>  <molecule>
CCc1c(C)c2ccc(OCC(=O)N=Nc3c(O)[nH]c4ccccc34)c(C)c2oc1=O

>  <classLabel>
n

$$$$

Query molecule follows.
Dear all, I need the recorded test outcome for COc1ccc(/C=C2\CCCC3=C2N=C2SC=NN2C3c2ccc(OC)c(OC)c2)cc1OC (stereo not given) , thank you.
n
